The origin of these recorded values is PubChem BioAssay AID1919017.

System: SW1271 complex spheroids with HUVEC/MSC, growth, % test/control
Assay: Anticancer human tumor SW1271 cell line growth inhibition [AhR];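 also: spheroids exposed to agents for 7 days before readout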
Settings: second compound 0.316 µM; first compound 0.00316 µM; active compounds read low
Assay Endpoint: viability, T/C (%)
Give bare numbers, in %.

1. CC[C@@]1(O)C(=O)OCc2c1cc1n(c2=O)Cc2cc3c(CN(C)C)c(O)ccc3nc2-1 + Cc1cncc(-c2nc(NCCc3c[nH]c4ccccc34)c3ncn(C(C)C)c3n2)c1 = 108
2. Cn1ncnc1C1c2n[nH]c(=O)c3cc(F)cc(c23)NC1c1ccc(F)cc1 (stereo unspecified) + CC(CO)NC(=O)c1cc(-c2ccc(Cl)cc2)nn(-c2cnn(C)c2)c1=O = 104
3. Nc1ncn(C2CC(O)C(CO)O2)c(=O)n1 (stereo unspecified) + CC(CO)NC(=O)c1cc(-c2ccc(Cl)cc2)nn(-c2cnn(C)c2)c1=O = 78.2
4. CC[C@@]1(O)C(=O)OCc2c1cc1n(c2=O)Cc2cc3c(CN(C)C)c(O)ccc3nc2-1 + Cc1ccccc1N=Nc1ccc(NC(=O)c2ccnn2C)c(C)c1 = 79.9
5. Cn1ncnc1C1c2n[nH]c(=O)c3cc(F)cc(c23)NC1c1ccc(F)cc1 (stereo unspecified) + Cc1ccccc1N=Nc1ccc(NC(=O)c2ccnn2C)c(C)c1 = 109

Now consider a different compound.
Can you look up the measured viability, T/C of Nc1ncn(C2CC(O)C(CO)O2)c(=O)n1 (stereo unspecified) + Cc1cncc(-c2nc(NCCc3c[nH]c4ccccc34)c3ncn(C(C)C)c3n2)c1 for me? 105

###

Tested on: SW1271 complex spheroids with HUVEC/MSC, growth, % test/control
Experiment: Anticancer human tumor SW1271 cell line growth inhibition [AhR];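 also: spheroids exposed to agents for 7 days before readout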
Settings: second compound 3.16 µM; first compound 0.1 µM; active compounds read low
# if measured viability, T/C < 70%: 1  # else: 0

Study these solved cases before continuing.
1. COc1cc(Nc2ncc3c(n2)-c2ccc(Cl)cc2C(c2c(F)cccc2OC)=NC3)ccc1C(=O)O + CC(CO)NC(=O)c1cc(-c2ccc(Cl)cc2)nn(-c2cnn(C)c2)c1=O = 1
2. NS(=O)(=O)OCC1CC(n2ccc3c(NC4CCc5ccccc54)ncnc32)CC1O (centres undefined) + Cc1ccccc1N=Nc1ccc(NC(=O)c2ccnn2C)c(C)c1 = 0
3. CC[C@@]1(O)C(=O)OCc2c1cc1n(c2=O)Cc2cc3c(CN(C)C)c(O)ccc3nc2-1 + CC(CO)NC(=O)c1cc(-c2ccc(Cl)cc2)nn(-c2cnn(C)c2)c1=O = 1
4. CC1COCCN1c1cc(-c2ccnn2C)c2ccnc(-c3ccn[nH]3)c2n1 (centres undefined) + Cc1ccccc1N=Nc1ccc(NC(=O)c2ccnn2C)c(C)c1 = 1
5. O=C(c1cc(Cc2n[nH]c(=O)c3ccccc23)ccc1F)N1CCN(C(=O)C2CC2)CC1 + Cc1cncc(-c2nc(NCCc3c[nH]c4ccccc34)c3ncn(C(C)C)c3n2)c1 = 0

Does the reported viability, T/C of Nc1ccn(C2OC(CO)C(O)C2(F)F)c(=O)n1 (centres undefined) + Cc1ccccc1N=Nc1ccc(NC(=O)c2ccnn2C)c(C)c1 stay below 70%? 1

Does the reported viability, T/C of O=C(C=Cc1cccc(S(=O)(=O)Nc2ccccc2)c1)NO + CC(CO)NC(=O)c1cc(-c2ccc(Cl)cc2)nn(-c2cnn(C)c2)c1=O stay below 70%? 0

###

System: SW1271 complex spheroids with HUVEC/MSC, growth, % test/control
Assay: Anticancer human tumor SW1271 cell line growth inhibition [AhR];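 also: spheroids exposed to agents for 7 days before readout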
Settings: second compound 10 µM; first compound 0.316 µM; active compounds read low
Assay Endpoint: viability, T/C (%)
One number for each entry, in %.

# annotated cases, reported viability, T/C shown
1) NS(=O)(=O)OCC1CC(n2ccc3c(NC4CCc5ccccc54)ncnc32)CC1O (centres undefined) + Cc1cncc(-c2nc(NCCc3c[nH]c4ccccc34)c3ncn(C(C)C)c3n2)c1 = 54.7
2) CC1(C)CCC(CN2CCN(c3ccc(C(=O)NS(=O)(=O)c4ccc(NCC5CCOCC5)c([N+](=O)[O-])c4)c(Oc4cnc5[nH]ccc5c4)c3)CC2)=C(c2ccc(Cl)cc2)C1 + Cc1ccccc1N=Nc1ccc(NC(=O)c2ccnn2C)c(C)c1 = 98.4
3) Nc1ncn(C2CC(O)C(CO)O2)c(=O)n1 (centres undefined) + Cc1cncc(-c2nc(NCCc3c[nH]c4ccccc34)c3ncn(C(C)C)c3n2)c1 = 48.9
4) COc1cc(Nc2ncc3c(n2)-c2ccc(Cl)cc2C(c2c(F)cccc2OC)=NC3)ccc1C(=O)O + Cc1cncc(-c2nc(NCCc3c[nH]c4ccccc34)c3ncn(C(C)C)c3n2)c1 = 49.5
5) Nc1ccccc1NC(=O)c1ccc(CNC(=O)OCc2cccnc2)cc1 + Cc1cncc(-c2nc(NCCc3c[nH]c4ccccc34)c3ncn(C(C)C)c3n2)c1 = 35.3

// batch mode: one viability, T/C value per listed entry
1. Nc1ccn(C2OC(CO)C(O)C2(F)F)c(=O)n1 (centres undefined) + Cc1ccccc1N=Nc1ccc(NC(=O)c2ccnn2C)c(C)c1
2. NS(=O)(=O)OCC1CC(n2ccc3c(NC4CCc5ccccc54)ncnc32)CC1O (centres undefined) + CC(CO)NC(=O)c1cc(-c2ccc(Cl)cc2)nn(-c2cnn(C)c2)c1=O
3. COc1cccc2c1C(=O)c1c(O)c3c(c(O)c1C2=O)CC(O)(C(=O)CO)CC3OC1CC(N)C(O)C(C)O1 (centres undefined) + Cc1cncc(-c2nc(NCCc3c[nH]c4ccccc34)c3ncn(C(C)C)c3n2)c1
4. O=C(c1cc(Cc2n[nH]c(=O)c3ccccc23)ccc1F)N1CCN(C(=O)C2CC2)CC1 + Cc1cncc(-c2nc(NCCc3c[nH]c4ccccc34)c3ncn(C(C)C)c3n2)c1

[50.2, 103, 24.3, 46.4]

###

System: SW1271 complex spheroids with HUVEC/MSC, growth, % test/control
Test: Anticancer human tumor SW1271 cell line growth inhibition [AhR];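 also: spheroids exposed to agents for 7 days before readout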
Conditions: second compound 1 µM; first compound 10 µM; active compounds read low
Assay Endpoint: viability, T/C (%)
Give bare numbers, in %.

# annotated cases, reported viability, T/C shown
1) CC1COCCN1c1cc(C2(S(C)(=N)=O)CC2)nc(-c2ccnc3[nH]ccc23)n1 (stereo not drawn) + Cc1ccccc1N=Nc1ccc(NC(=O)c2ccnn2C)c(C)c1 = 56.7
2) COc1cc(C2c3cc4c(cc3C(OC3OC5COC(C)OC5C(O)C3O)C3COC(=O)C23)OCO4)cc(OC)c1O (stereo not drawn) + Cc1cncc(-c2nc(NCCc3c[nH]c4ccccc34)c3ncn(C(C)C)c3n2)c1 = 72

Now consider a different molecule.
Can you look up the measured viability, T/C of O=C(c1cc(Cc2n[nH]c(=O)c3ccccc23)ccc1F)N1CCN(C(=O)C2CC2)CC1 + CC(CO)NC(=O)c1cc(-c2ccc(Cl)cc2)nn(-c2cnn(C)c2)c1=O for me? 103

###

Test system: SW1271 complex spheroids with HUVEC/MSC, growth, % test/control
Experiment: Anticancer human tumor SW1271 cell line growth inhibition [AhR];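 also: spheroids exposed to agents for 7 days before readout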
Conditions: second compound 1 µM; first compound 10 µM; active compounds read low
What viability, T/C was measured for each of the following?

# annotated cases, reported viability, T/C shown
1) NS(=O)(=O)OCC1CC(n2ccc3c(NC4CCc5ccccc54)ncnc32)CC1O (stereo unspecified) + Cc1cncc(-c2nc(NCCc3c[nH]c4ccccc34)c3ncn(C(C)C)c3n2)c1 = 79%
2) CC1(C)CCC(CN2CCN(c3ccc(C(=O)NS(=O)(=O)c4ccc(NCC5CCOCC5)c([N+](=O)[O-])c4)c(Oc4cnc5[nH]ccc5c4)c3)CC2)=C(c2ccc(Cl)cc2)C1 + Cc1ccccc1N=Nc1ccc(NC(=O)c2ccnn2C)c(C)c1 = 128%
3) CC(C)c1c(-c2ccccc2)nc2c(C#N)c[nH]n2c1=O + Cc1ccccc1N=Nc1ccc(NC(=O)c2ccnn2C)c(C)c1 = 94.4%
4) NS(=O)(=O)OCC1CC(n2ccc3c(NC4CCc5ccccc54)ncnc32)CC1O (stereo unspecified) + CC(CO)NC(=O)c1cc(-c2ccc(Cl)cc2)nn(-c2cnn(C)c2)c1=O = 50.6%

// batch mode: one viability, T/C value per listed entry
1. COc1ccc([C@@H](O)c2cc(-c3ncnc4cc(N5CCOCC5)ccc34)c(F)cc2Cl)nn1 + Cc1cncc(-c2nc(NCCc3c[nH]c4ccccc34)c3ncn(C(C)C)c3n2)c1
2. Nc1ccn(C2OC(CO)C(O)C2(F)F)c(=O)n1 (stereo unspecified) + Cc1ccccc1N=Nc1ccc(NC(=O)c2ccnn2C)c(C)c1

36.3%
40.3%

###

System: SW1271 complex spheroids with HUVEC/MSC, growth, % test/control
Assay: Anticancer human tumor SW1271 cell line growth inhibition [AhR]; active = viability on the fitted dose curve at most 10% of control; inactive = the rest;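 also: spheroids exposed to agents for 7 days before readout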
Conditions: second compound 3.16 µM; first compound 0.3 µM
Classes to choose from: active, inactive

Study these solved cases before continuing.
1. CC(C)CC(NC(=O)C(Cc1ccccc1)NC(=O)c1cnccn1)B(O)O (centres undefined) + CC(CO)NC(=O)c1cc(-c2ccc(Cl)cc2)nn(-c2cnn(C)c2)c1=O = active
2. Nc1ncn(C2CC(O)C(CO)S2)c(=O)n1 (centres undefined) + CC(CO)NC(=O)c1cc(-c2ccc(Cl)cc2)nn(-c2cnn(C)c2)c1=O = inactive
3. CCc1c2c(nc3ccc(O)cc13)-c1cc3c(c(=O)n1C2)COC(=O)[C@]3(O)CC + Cc1ccccc1N=Nc1ccc(NC(=O)c2ccnn2C)c(C)c1 = inactive
4. O=C(C=Cn1cnc(-c2cc(C(F)(F)F)cc(C(F)(F)F)c2)n1)NNc1cnccn1 + CC(CO)NC(=O)c1cc(-c2ccc(Cl)cc2)nn(-c2cnn(C)c2)c1=O = inactive
5. Nc1ncn(C2CC(O)C(CO)S2)c(=O)n1 (centres undefined) + Cc1ccccc1N=Nc1ccc(NC(=O)c2ccnn2C)c(C)c1 = inactive

Please let me know the test result on file for CCc1c2c(nc3ccc(O)cc13)-c1cc3c(c(=O)n1C2)COC(=O)[C@]3(O)CC + CC(CO)NC(=O)c1cc(-c2ccc(Cl)cc2)nn(-c2cnn(C)c2)c1=O . inactive

Please let me know the test result on file for CCN(c1cc(-c2ccc(CN3CCOCC3)cc2)cc(C(=O)NCc2c(C)cc(C)[nH]c2=O)c1C)C1CCOCC1 + Cc1ccccc1N=Nc1ccc(NC(=O)c2ccnn2C)c(C)c1 . inactive

Please let me know the test result on file for CCN(c1cc(-c2ccc(CN3CCOCC3)cc2)cc(C(=O)NCc2c(C)cc(C)[nH]c2=O)c1C)C1CCOCC1 + CC(CO)NC(=O)c1cc(-c2ccc(Cl)cc2)nn(-c2cnn(C)c2)c1=O . inactive

Please let me know the test result on file for O=C(C=Cn1cnc(-c2cc(C(F)(F)F)cc(C(F)(F)F)c2)n1)NNc1cnccn1 + Cc1ccccc1N=Nc1ccc(NC(=O)c2ccnn2C)c(C)c1 . inactive
